Assay: Valspodar plasma and brain exposure, constant infusion or IV bolus in rats
Type: in vivo, Sprague Dawley rats
Settings: Sprague Dawley, rat, plasma, intravenous, 8 mg/hr/kg, free plasma exposure, maximum soluble dose 8 mg/hr/kg constant infusion
REPORTED_METRIC: concentration at 4 h (nM)

MOLECULE	REPORTED_METRIC	TEST_RESULT
C/C=C/C[C@@H](C)C(=O)[C@H]1C(=O)N[C@@H](C(C)C)C(=O)N(C)CC(=O)N(C)[C@@H](CC(C)C)C(=O)N[C@@H](C(C)C)C(=O)N(C)[C@@H](CC(C)C)C(=O)N[C@@H](C)C(=O)N[C@H](C)C(=O)N(C)[C@@H](CC(C)C)C(=O)N(C)[C@@H](CC(C)C)C(=O)N(C)[C@@H](C(C)C)C(=O)N1C [valspodar]	concentration at 4 h	2140
